Sourced from paper PMC5201116

assay: Non-enzymatic ferricyanide reduction rate constant; type: physicochemical; details: 1 mM ferricyanide, pH 7.0
assayReadout: FC red Rate Const (M⁻¹ s⁻¹)
Please respond with the number in M⁻¹ s⁻¹ and leave the unit unwritten.

Problem: Endpoint output: FC red Rate Const of O=c1c(O)c(-c2ccccc2)oc2cc(O)cc(O)c12 . Value?
Result: 48000

Problem: Could you tell me which FC red Rate Const is on file for O=c1cc(-c2ccccc2)oc2cc(O)c(O)c(O)c12 ?
Result: 25500

Problem: Quick check: FC red Rate Const of O=c1c(O)c(-c2ccc(O)c(O)c2)oc2cc(O)ccc12 ?
Result: 301000

----------
Assay: Iron binding constant, calcein displacement assay
Format: physicochemical
Conditions: calcein displacement
Text: Calcein displacement assay in the presence of varied concentrations of flavonoids and catechols has been used. Calcein release from its complex with iron was monitored by fluorescence as described in [26].
Flag rule - Iron complex Diss. Const less than 2 µM flags fulfilled; the remaining entries get not fulfilled.

Problem: Iron complex Diss. Const strictly < 2 µM for this molecule? COc1ccc2c(=O)c(O)c(-c3ccccc3)oc2c1 [compound 5, 3-Hydroxy-7-methoxy-]
Result: not fulfilled

Problem: Strictly below 2 µM: is that where Iron complex Diss. Const of O=c1cc(-c2ccccc2)oc2cc(O)c(O)c(O)c12 sits?
Result: not fulfilled

Problem: Identify whether the molecule O=c1c(O)c(-c2ccc(O)cc2)oc2ccccc12 [compound 3, 3,4'-Dihydroxy-] records Iron complex Diss. Const below 2 µM.
Result: not fulfilled

Problem: Bench note: check whether O=c1c(-c2ccc(O)cc2)coc2c(O)c(O)ccc12 [compound 25, 8-Hydroxy-daidzein] shows Iron complex Diss. Const below 2 µM
Result: fulfilled

Problem: Dear colleague, could you confirm whether Iron complex Diss. Const of O=c1c(O)c(-c2ccc(O)cc2O)oc2cc(O)cc(O)c12 falls below 2 µM? Thanks.
Result: not fulfilled

Problem: Lab note: confirm whether the reported Iron complex Diss. Const for this molecule is below 2 µM, equality not counting. molecule: O=c1c(O)c(-c2ccccc2)oc2cc(O)cc(O)c12
Result: not fulfilled

Problem: Input O=C(NO)c1ccc(O)c(O)c1 [compound 33, 3,4-Dihydroxy-benzohydroxamate] ; condition: Iron complex Diss. Const strictly below 2 µM. Does it hold?
Result: fulfilled

Problem: Is 2 µM strictly greater than the molecule's reported Iron complex Diss. Const? molecule: O=c1cc(-c2ccc(O)c(O)c2)oc2ccccc12 [compound 19, 3’,4’-dihydroxyflavone]
Result: not fulfilled

Problem: Strictly below 2 µM in Iron complex Diss. Const? CCOC(=O)c1ccc(O)c(O)c1 [compound 32, Ethyl 3,4-dihydroxybenzoate, reference compound]
Result: not fulfilled

Problem: For this molecule, is Iron complex Diss. Const lower than 2 µM? O=c1cc(-c2ccccc2)oc2c(O)c(O)ccc12 [compound 20, 7,8-Dihydroxyflavone]
Result: fulfilled

Problem: Quick check: Iron complex Diss. Const of N[C@H](Cc1ccc(O)c(O)c1)C(=O)O [compound 30, 3,4-Dihydroxy-D-phenylalanine] under 2 µM?
Result: not fulfilled

Problem: Quick check: does O=c1c(O)c(-c2ccccc2)oc2cc(O)ccc12 [compound 2, 3,7-Dihydroxy-] have Iron complex Diss. Const under 2 µM?
Result: not fulfilled
